Each recorded value in this set is attributed to PubChem BioAssay (NCI).

- Tested on: IGROV1 ovarian
- Test description: NCI-60 one-dose screen, 48 h (100 = growth as untreated, 0 = no growth, -100 = all killed)
- Measurement conditions: 10 µM unless noted
This is part of a sample that, as a whole, favours compounds with a hit. Of some 83,000 tested, about 20% had one in any assay. The source made the active and inactive calls. How the source made its calls: active means growth percent below 10; inactive means the rest.
Kindly state growth for each of the entries shown.

Input line: // query growth value for entry "COc1cc(/C=C/C(=O)c2cccc(-n3cc(-c4ccccc4)[nH]c3=O)c2)ccc1O"
Output line: 2.96% (active)

Input line: Now the compound "COC(=O)[C@]12CC[C@@H](C)[C@H](C)[C@@H]1C1=CC[C@@H]3[C@@]4(C)C(C=O)=C[C@@](C)(COC(=O)c5ccco5)[C@@H]4C(=O)C[C@@]3(C)[C@]1(C)CC2"
Output line: 51.8% (inactive)

Input line: Now the compound "O=C1Nc2ccccc2/C1=C/c1cn(C(=O)c2ccc(Cl)cc2)c2ccccc12"
Output line: 72.7% (inactive)

Input line: Now the compound "Clc1cccc(Cl)c1/C=C/c1cc(/C=C/c2c(Cl)cccc2Cl)[nH]n1"
Output line: 48% (inactive)
